measured.on: 5-hydroxytryptamine receptor 2B (Homo sapiens, UniProt P41595)
Sequence (P41595 whole entry): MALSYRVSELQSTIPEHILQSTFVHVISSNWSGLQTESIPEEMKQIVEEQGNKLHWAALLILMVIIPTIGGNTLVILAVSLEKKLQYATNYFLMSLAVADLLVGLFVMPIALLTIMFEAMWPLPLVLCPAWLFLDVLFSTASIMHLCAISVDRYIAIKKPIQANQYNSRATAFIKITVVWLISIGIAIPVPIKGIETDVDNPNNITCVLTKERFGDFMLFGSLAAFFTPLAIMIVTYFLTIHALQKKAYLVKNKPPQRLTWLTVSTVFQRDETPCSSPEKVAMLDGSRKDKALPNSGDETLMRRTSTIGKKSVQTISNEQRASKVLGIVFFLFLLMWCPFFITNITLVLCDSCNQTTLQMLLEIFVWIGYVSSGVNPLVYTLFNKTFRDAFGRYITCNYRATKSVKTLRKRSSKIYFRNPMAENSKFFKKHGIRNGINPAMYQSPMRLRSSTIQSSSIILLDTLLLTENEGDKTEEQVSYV
Format: functional, cell-based
# AC50 per entry

The following molecules have reported results that may help.
// query What measured AC50 goes with CCOC(=O)NNc1ccc(N(CC)CC(C)O)nn1 (stereo not drawn) ?
// result > 30 µM

// query Can you share its AC50? I mean this molecule: CC[C@@H](CO)NC(=O)[C@@H]1C=C2c3cccc4[nH]cc(c34)C[C@H]2N(C)C1
// result 0.0257 µM

// query # input molecule: CCCCNc1ccc(C(=O)OCCN(C)C)cc1 ; wanted: its AC50
// result > 10 µM

// query Need AC50, item CC(/C=C1\SC(=S)N(CC(=O)O)C1=O)=C\c1ccccc1
// result > 30 µM

// query Quick one: AC50 for CC(CCc1ccccc1)NC(C)C(O)c1ccc(O)cc1 (stereo not drawn) ?
// result > 10 µM

// query If you can, please state the reported AC50 value of O=C(O)c1cc(O)c2c3nc4ccccc4oc-3cc(=O)c2n1 .
// result > 30 µM

// query Can you look up the measured AC50 of CCCC[C@H](C)C[C@H](O)/C=C/[C@H]1[C@H](O)CC(=O)[C@@H]1CCCC/C=C/C(=O)O for me?
// result > 30 µM

***
// query What measured AC50 goes with CN(C)c1cc(CNCC(C)(C)C)c(O)c2c1C[C@H]1C[C@H]3[C@H](N(C)C)C(O)=C(C(N)=O)C(=O)[C@@]3(O)C(O)=C1C2=O ?
// result > 30 µM

====

measured.on: Bile salt export pump (Homo sapiens, UniProt O95342)
Sequence (O95342 whole entry): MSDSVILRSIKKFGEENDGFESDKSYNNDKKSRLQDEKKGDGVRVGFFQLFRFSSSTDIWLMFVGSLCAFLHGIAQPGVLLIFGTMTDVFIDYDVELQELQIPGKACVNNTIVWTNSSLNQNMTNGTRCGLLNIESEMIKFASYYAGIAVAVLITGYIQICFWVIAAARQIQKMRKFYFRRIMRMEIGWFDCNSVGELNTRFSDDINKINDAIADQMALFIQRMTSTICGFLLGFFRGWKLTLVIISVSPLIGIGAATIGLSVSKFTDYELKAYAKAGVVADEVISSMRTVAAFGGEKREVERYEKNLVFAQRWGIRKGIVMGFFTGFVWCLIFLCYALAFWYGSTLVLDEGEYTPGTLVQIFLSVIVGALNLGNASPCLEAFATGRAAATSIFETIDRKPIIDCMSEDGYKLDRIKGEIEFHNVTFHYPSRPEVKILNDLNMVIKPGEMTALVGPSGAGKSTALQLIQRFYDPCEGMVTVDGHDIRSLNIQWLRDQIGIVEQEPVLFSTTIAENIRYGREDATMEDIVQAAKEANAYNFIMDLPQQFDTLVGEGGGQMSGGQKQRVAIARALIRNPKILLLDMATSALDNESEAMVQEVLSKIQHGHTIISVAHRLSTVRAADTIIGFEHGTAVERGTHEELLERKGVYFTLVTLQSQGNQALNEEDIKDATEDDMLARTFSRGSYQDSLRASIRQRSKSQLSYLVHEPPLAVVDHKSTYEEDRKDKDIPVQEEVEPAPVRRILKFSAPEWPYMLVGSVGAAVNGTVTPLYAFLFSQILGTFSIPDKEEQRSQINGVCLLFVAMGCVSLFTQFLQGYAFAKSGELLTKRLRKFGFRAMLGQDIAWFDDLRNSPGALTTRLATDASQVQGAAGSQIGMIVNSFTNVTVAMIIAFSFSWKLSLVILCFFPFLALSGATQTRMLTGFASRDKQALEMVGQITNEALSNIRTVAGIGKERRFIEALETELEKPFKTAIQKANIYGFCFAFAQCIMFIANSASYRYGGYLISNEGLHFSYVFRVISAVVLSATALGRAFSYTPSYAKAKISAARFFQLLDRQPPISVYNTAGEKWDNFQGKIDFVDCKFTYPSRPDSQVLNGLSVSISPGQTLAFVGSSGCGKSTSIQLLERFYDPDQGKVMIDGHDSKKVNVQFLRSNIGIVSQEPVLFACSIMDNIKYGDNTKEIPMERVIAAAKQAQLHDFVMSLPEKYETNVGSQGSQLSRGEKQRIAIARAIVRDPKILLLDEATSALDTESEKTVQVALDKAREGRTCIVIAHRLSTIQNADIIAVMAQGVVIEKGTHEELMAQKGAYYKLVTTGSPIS
Format: functional
Entries and their AC50
Use µM as the unit, but write only the number.

// query I am curious: what AC50 value has been reported for C[C@H]1Oc2cc(cnc2N)-c2c(nn(C)c2C#N)CN(C)C(=O)c2ccc(F)cc21 ?
// result 120

New cases:
// query // AC50 lookup, key: O=C(O)CCCc1ccc(N(CCCl)CCCl)cc1
// result 270

====

measured.on: cGMP-inhibited 3',5'-cyclic phosphodiesterase 3A (Homo sapiens, UniProt Q14432)
Sequence (Q14432 whole entry): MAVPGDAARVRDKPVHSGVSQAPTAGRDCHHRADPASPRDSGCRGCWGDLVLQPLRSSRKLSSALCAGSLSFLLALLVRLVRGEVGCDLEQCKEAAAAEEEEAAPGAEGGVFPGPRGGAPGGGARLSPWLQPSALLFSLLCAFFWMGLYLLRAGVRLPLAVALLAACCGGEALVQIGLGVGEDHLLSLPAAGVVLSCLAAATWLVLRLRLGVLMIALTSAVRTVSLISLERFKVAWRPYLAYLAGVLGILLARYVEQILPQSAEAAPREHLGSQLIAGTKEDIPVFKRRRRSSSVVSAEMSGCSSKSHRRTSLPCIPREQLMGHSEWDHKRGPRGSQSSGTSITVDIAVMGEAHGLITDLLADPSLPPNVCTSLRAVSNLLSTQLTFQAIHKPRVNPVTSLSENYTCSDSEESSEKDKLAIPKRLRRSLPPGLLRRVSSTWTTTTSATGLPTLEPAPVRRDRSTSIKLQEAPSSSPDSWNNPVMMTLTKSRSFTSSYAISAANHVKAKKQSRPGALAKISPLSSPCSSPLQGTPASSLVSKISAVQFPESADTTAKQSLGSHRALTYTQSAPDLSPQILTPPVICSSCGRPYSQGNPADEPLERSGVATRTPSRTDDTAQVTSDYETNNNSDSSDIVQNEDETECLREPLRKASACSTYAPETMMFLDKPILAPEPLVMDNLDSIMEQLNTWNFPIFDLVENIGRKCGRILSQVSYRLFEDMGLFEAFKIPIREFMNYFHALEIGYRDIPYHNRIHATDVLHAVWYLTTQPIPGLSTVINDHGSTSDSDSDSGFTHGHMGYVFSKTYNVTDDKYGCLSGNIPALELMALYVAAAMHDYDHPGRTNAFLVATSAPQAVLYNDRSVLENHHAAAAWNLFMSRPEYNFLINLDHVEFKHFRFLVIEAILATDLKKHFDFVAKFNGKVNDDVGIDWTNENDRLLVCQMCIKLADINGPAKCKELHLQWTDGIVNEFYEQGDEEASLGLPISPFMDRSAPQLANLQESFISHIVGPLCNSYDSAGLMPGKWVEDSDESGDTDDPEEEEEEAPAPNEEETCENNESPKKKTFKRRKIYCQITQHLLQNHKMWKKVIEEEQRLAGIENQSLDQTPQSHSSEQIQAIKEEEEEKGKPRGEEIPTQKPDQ
Assay type: functional
parameter.measured: AC50

// query What value of AC50 has been recorded for this entry: Nc1ccc(C(=O)O)c(O)c1
// result > 30 µM

// query Could you share which AC50 value was measured for CNCC[C@@H](Oc1ccccc1C)c1ccccc1 ?
// result > 30 µM

// query Please look up its AC50: CCCC(C)(COC(N)=O)COC(=O)NC(C)C (stereo not given)
// result > 30 µM

Others:
// query So what does the record say about AC50 for CO[C@@]1(NC(=O)Cc2cccs2)C(=O)N2C(C(=O)O)=C(COC(N)=O)CS[C@@H]21 ?
// result > 30 µM

// query Requested field: AC50. Item: CC(=N)N1CC[C@H](SC2=C(C(=O)O)N3C(=O)[C@H]([C@@H](C)O)[C@H]3C2)C1
// result > 300 µM

====

Endpoint: AC50. System: Neuropeptide Y receptor type 2 (Homo sapiens). Items follow. Further: assay procedure not described here.
Sequence (P49146 whole entry): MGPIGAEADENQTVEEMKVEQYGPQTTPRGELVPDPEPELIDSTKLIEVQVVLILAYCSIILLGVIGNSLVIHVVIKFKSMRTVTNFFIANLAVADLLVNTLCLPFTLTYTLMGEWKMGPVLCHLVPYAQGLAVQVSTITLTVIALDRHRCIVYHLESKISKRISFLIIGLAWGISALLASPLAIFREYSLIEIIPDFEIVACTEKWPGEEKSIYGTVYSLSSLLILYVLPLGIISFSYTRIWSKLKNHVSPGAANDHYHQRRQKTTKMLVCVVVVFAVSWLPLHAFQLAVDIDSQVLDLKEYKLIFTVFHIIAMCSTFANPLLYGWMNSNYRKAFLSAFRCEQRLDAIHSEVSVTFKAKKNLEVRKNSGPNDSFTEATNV

// query Value wanted: AC50 (Neuropeptide Y receptor type 2 (Homo sapiens)) of entry CC(=O)OCC[N+](C)(C)C [ACETYLCHOLINE]
// result > 30 µM

// query GET /values?readout=AC50&system=Neuropeptide Y receptor type 2 (Homo sapiens)&item= O=C(Nc1nc(-c2cc(Cl)cs2)c(N2CCN(C3CCCCC3)CC2)s1)c1cnc(N2CCC(C(=O)O)CC2)c(Cl)c1 [AVATROMBOPAG]; further: assay procedure not described here
// result > 10 µM

// query Under Neuropeptide Y receptor type 2 (Homo sapiens): AC50 value of CCCN(CCC)CCc1cccc2c1CC(=O)N2 [ROPINIROLE] ?
// result > 30 µM

// query Lab note: need AC50 with Neuropeptide Y receptor type 2 (Homo sapiens) for entry CC(C)CC(N(C)C)C1(c2ccc(Cl)cc2)CCC1 (stereo not given) [SIBUTRAMINE] , please look it up.
// result > 30 µM

***
// query Give Neuropeptide Y receptor type 2 (Homo sapiens) AC50 for CCCC(C)(COC(N)=O)COC(=O)NC(C)C (stereo not given) [CARISOPRODOL]
// result > 30 µM

====

measured.on: Gamma-aminobutyric acid receptor subunit alpha-1 (Rattus norvegicus)
Sequence (P62813 whole entry): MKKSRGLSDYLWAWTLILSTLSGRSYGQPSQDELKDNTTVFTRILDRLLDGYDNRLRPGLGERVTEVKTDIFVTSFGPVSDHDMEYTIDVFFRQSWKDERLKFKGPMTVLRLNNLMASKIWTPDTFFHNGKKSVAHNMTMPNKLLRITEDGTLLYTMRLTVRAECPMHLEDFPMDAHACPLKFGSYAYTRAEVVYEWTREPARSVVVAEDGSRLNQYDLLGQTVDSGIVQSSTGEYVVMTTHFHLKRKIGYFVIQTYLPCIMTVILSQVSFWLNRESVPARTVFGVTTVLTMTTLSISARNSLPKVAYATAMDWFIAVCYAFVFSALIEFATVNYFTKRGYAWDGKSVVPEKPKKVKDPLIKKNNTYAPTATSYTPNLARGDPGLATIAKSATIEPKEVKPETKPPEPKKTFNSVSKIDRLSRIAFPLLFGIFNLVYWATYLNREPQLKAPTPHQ
Listed molecules paired with reported AC50

Study these solved cases before continuing.
// query Form: Entry = C=C[C@@]1(C)CC(=O)[C@]2(O)[C@@]3(C)[C@@H](O)CCC(C)(C)[C@@H]3[C@H](OC(=O)CCN(C)C)[C@H](OC(C)=O)[C@@]2(C)O1 | System = Gamma-aminobutyric acid receptor subunit alpha-1 (Rattus norvegicus) | AC50 = ____; further: assay procedure not described here
// result > 30 µM

// query Lab note: need AC50 for CCCN(CCC)CCc1cccc2c1CC(=O)N2 on Gamma-aminobutyric acid receptor subunit alpha-1 (Rattus norvegicus), anyone have it?
// result > 10 µM

// query Enter reported AC50 observed with Gamma-aminobutyric acid receptor subunit alpha-1 (Rattus norvegicus) for CC(=O)/N=c1/sc(S(N)(=O)=O)nn1C [METHAZOLAMIDE]
// result > 10 µM

// query # value lookup — system Gamma-aminobutyric acid receptor subunit alpha-1 (Rattus norvegicus), readout AC50, item Cn1c(=O)c2[nH]cnc2n(C)c1=O; further: assay procedure not described here
// result > 10 µM

// query Param readout = AC50; param system = Gamma-aminobutyric acid receptor subunit alpha-1 (Rattus norvegicus); param query = CCN(CC)C(=O)C1CN2CCc3cc(OC)c(OC)cc3C2CC1OC(C)=O (configuration not stated) [BENZQUINAMIDE] ; response: value; further: assay procedure not described here
// result > 30 µM

More entries:
// query Hello, I am looking for reported AC50 with Gamma-aminobutyric acid receptor subunit alpha-1 (Rattus norvegicus) for O=C(Nc1c(Cl)cncc1Cl)c1ccc(OC(F)F)c(OCC2CC2)c1 . Could you help?
// result > 30 µM

// query Reported AC50 for Gamma-aminobutyric acid receptor subunit alpha-1 (Rattus norvegicus), given CCOC(=O)NNc1ccc(N(CC)CC(C)O)nn1 (configuration not stated) ?
// result > 30 µM

// query Form field - read-out: AC50; system: Gamma-aminobutyric acid receptor subunit alpha-1 (Rattus norvegicus); submitted item: CN(C)c1cc(NC(=O)CNC(C)(C)C)c(O)c2c1C[C@H]1C[C@H]3[C@H](N(C)C)C(O)=C(C(N)=O)C(=O)[C@@]3(O)C(O)=C1C2=O; further: assay procedure not described here
// result > 30 µM

// query Param readout = AC50; param system = Gamma-aminobutyric acid receptor subunit alpha-1 (Rattus norvegicus); param query = O=C(O)CSCC(=O)NC1CCSC1=O (configuration not stated) ; response: value; further: assay procedure not described here
// result > 30 µM

// query Find AC50 (Gamma-aminobutyric acid receptor subunit alpha-1 (Rattus norvegicus)) for the entry COC(=O)[C@H](c1ccccc1Cl)N1CCc2sccc2C1
// result > 30 µM

// query Lookup: AC50 / Gamma-aminobutyric acid receptor subunit alpha-1 (Rattus norvegicus) / Clc1ccc2c(c1)C(N1CCNCC1)=Nc1ccccc1O2
// result > 10 µM

// query For the record NS(=O)(=O)c1cc(C(=O)O)cc(N2CCCC2)c1Oc1ccccc1 [PIRETANIDE] , what value of AC50 is listed for Gamma-aminobutyric acid receptor subunit alpha-1 (Rattus norvegicus)?
// result > 30 µM

// query Give the reported AC50 for CCCC[C@H](C)C[C@H](O)/C=C/[C@H]1[C@H](O)CC(=O)[C@@H]1CCCC/C=C/C(=O)O (system: Gamma-aminobutyric acid receptor subunit alpha-1 (Rattus norvegicus)). Further: assay procedure not described here.
// result > 30 µM

// query Please state recorded AC50 (tested on Gamma-aminobutyric acid receptor subunit alpha-1 (Rattus norvegicus)) of CO/N=C(\C(=O)N[C@@H]1C(=O)N2C(C(=O)[O-])=C(C[n+]3cccc4c3CCC4)CS[C@H]12)c1csc(N)n1; further: assay procedure not described here
// result > 30 µM

// query Enter reported AC50 observed with Gamma-aminobutyric acid receptor subunit alpha-1 (Rattus norvegicus) for O=C(CCCN1CCC(n2c(O)nc3ccccc32)CC1)c1ccc(F)cc1
// result > 30 µM

// query Form: Entry = CC(=O)OCC(=O)[C@@]1(O)CC[C@H]2[C@@H]3CCC4=CC(=O)CC[C@]4(C)C3=CC[C@@]21C [ANECORTAVE ACETATE] | System = Gamma-aminobutyric acid receptor subunit alpha-1 (Rattus norvegicus) | AC50 = ____; further: assay procedure not described here
// result > 10 µM

// query What reported AC50 corresponds to C#C[C@]1(O)CC[C@H]2[C@@H]3CCc4cc(OC)ccc4[C@H]3CC[C@@]21C on Gamma-aminobutyric acid receptor subunit alpha-1 (Rattus norvegicus)?
// result > 10 µM

====

measured.on: Muscarinic acetylcholine receptor M3 (Homo sapiens)
Sequence (P20309 whole entry): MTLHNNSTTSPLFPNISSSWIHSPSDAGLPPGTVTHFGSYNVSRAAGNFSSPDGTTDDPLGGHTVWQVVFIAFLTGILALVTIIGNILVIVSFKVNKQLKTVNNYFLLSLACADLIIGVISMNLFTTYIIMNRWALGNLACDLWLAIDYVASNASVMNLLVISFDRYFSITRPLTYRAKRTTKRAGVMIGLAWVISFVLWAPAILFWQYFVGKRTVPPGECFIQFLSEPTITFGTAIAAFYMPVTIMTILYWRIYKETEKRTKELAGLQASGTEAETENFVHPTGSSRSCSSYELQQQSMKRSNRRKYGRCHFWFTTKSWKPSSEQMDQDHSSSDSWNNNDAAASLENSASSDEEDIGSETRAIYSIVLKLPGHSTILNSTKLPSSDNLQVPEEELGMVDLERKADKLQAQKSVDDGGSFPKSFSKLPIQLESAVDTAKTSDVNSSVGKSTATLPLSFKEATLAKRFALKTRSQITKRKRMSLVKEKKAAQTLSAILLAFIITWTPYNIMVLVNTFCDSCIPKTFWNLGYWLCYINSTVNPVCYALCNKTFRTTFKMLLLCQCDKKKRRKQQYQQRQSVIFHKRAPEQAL
parameter.measured: AC50 (µM)
Please give a number only; it is taken to be in µM.

Look over these answered cases.
// query Can you look up the measured AC50 of O=C(CCCN1CCC(n2c(O)nc3ccccc32)CC1)c1ccc(F)cc1 for me?
// result 12

// query Any idea what AC50 was measured for CC1(C)C(/C=C/C=C/C=C/C=C2\N(CCCCS(=O)(=O)O)c3ccc4ccccc4c3C2(C)C)=[N+](CCCCS(=O)(=O)[O-])c2ccc3ccccc3c21 [INDOCYANINE GREEN ACID FORM] ?
// result 13

Moving on to the next compound.
// query # query: AC50 of entry COC(=O)N[C@@H](C)CNc1nccc(-c2cn(C(C)C)nc2-c2cc(Cl)cc(NS(C)(=O)=O)c2F)n1
// result 8.7
